target: rat NaPi-2b (Rattus norvegicus); assay: Sodium-dependent phosphate uptake of Xenopus oocytes which expressed NaPi-2b (32P); conditions: Xenopus oocytes expressing rat NaPi-2b, 32P radioactive phosphorus; read-out: IC50 (phosphate uptake inhibitory activity)
Sequence (Q9JJ09 whole entry): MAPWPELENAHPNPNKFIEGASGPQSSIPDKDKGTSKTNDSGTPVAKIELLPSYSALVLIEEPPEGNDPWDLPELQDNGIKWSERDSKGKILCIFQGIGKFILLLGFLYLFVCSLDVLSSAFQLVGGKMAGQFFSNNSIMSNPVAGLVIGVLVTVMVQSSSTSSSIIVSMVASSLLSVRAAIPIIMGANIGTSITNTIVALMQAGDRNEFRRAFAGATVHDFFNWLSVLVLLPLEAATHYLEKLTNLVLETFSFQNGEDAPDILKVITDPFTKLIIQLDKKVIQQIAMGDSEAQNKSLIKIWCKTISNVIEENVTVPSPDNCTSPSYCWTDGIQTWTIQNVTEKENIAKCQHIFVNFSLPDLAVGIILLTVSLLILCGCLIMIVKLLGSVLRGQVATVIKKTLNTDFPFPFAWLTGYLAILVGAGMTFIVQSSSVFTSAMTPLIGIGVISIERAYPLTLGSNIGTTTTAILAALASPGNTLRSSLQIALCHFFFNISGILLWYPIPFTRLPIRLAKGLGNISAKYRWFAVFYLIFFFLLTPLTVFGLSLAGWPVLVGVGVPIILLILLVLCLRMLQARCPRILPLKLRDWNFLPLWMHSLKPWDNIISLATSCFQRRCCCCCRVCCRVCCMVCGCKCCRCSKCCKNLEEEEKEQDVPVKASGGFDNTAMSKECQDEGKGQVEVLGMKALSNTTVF
readout: IC50 (µM)

# structure-smiles, readout, scale-unit, reading-qualifier, val
data = [
    ("CCN(CC)CCN(C)Cc1ccc(C(=O)Nc2ccc(Br)cc2C(=O)N/N=C/c2ccc(C)c(C)c2)cc1", "IC50", "µM", "=", 0.78),
    ("Cc1csc(NC(=O)c2cccc(CN(C)C)c2)c1C(=O)N/N=C/c1ccc(Cl)c(C(F)(F)F)c1", "IC50", "µM", "=", 3.22),
    ("COc1ccc(C(=O)Nc2ccccc2C(=O)N/N=C/c2ccccc2)cc1OC", "IC50", "µM", "=", 3.59),
    ("O=C(Nc1ccc(N2CCCCC2)cc1C(=O)N/N=C/c1ccc(F)cc1)c1cccc(CN2CCc3nc4ncccc4cc3C2)c1", "IC50", "µM", "<", 0.3),
    ("CCN(CC)CCN(C)Cc1cccc(C(=O)Nc2ccc(N3CCOCC3)cc2C(=O)N/N=C/c2ccc(Cl)c(C(F)(F)F)c2)c1", "IC50", "µM", "=", 1.34),
    ("Cc1ccc(/C=N/NC(=O)c2c(C)csc2NC(=O)c2cccc(CN3CCN(c4ncccn4)CC3)c2)cc1C", "IC50", "µM", "=", 4.44),
    ("O=C(N/N=C/c1cccc(F)c1)c1cc(Br)ccc1NC(=O)C1CCCCC1", "IC50", "µM", "=", 13.6),
]

src = patent US8134015B2
